Test system: HCV genotype 1b replicon
Assay: HCV replicon assay, genotype 1b replicon EC50
Format: cell-based, Hepatitis C virus
Conditions: Hepatitis C virus, HCV replicon, genotype 1b; read-out: EC50 [gt-1b]
pEC50: −log10 of the molar value.
Kind request: treat 8 as inclusive, so pEC50 at 8 or higher is satisfied, anything lower is not satisfied.

# molecule, category
measured = [
    ("CCc1nc2ccc(OCCCOC)cc2c2c1O[C@]1(CC2)C[C@H]2C(=O)N[C@]3(C(=O)NS(=O)(=O)C4(C)CC4)C[C@H]3/C=C\\CCCCC[C@H](NC(=O)OC(C)(C)C)C(=O)N2C1 [Example 479]", "satisfied"),
    ("COc1ccc2nc(C(C)C)c3c(c2c1)[C@H](F)C[C@]1(C[C@H]2C(=O)N[C@]4(C(=O)NS(=O)(=O)C5(C)CC5)C[C@H]4/C=C\\CCCCC[C@H](NC(=O)OCC(C)(C)C)C(=O)N2C1)O3 [Example 388]", "satisfied"),
    ("COCCCOc1ccc2nc(C)c3c(c2c1)CC[C@]1(C[C@H]2C(=O)N[C@]4(C(=O)NS(=O)(=O)C5(C)CC5)C[C@H]4/C=C\\CCCCC[C@H](NC(=O)OC(C)(C)C)C(=O)N2C1)O3 [Example 438]", "satisfied"),
    ("COc1ccc2nc(C3CC3)c3c(c2c1)[C@H](F)C[C@]1(C[C@H]2C(=O)N[C@]4(C(=O)NS(=O)(=O)C5(C)CC5)C[C@H]4/C=C\\CCCCC[C@H](NC(=O)OC(C)(C)C)C(=O)N2C1)O3 [Example 428]", "satisfied"),
    ("Cc1ccc2nc(C(F)(F)F)c3c(c2c1)CC[C@]1(C[C@H]2C(=O)N[C@]4(C(=O)NS(=O)(=O)C5(C)CC5)C[C@H]4/C=C\\CCCCC[C@H](NC(=O)OCCCN4CCCCC4)C(=O)N2C1)O3 [Example 423]", "not satisfied"),
    ("COc1ccc2nc(C)c3c(c2n1)CC[C@]1(C[C@H]2C(=O)N[C@]4(C(=O)NS(=O)(=O)C5(C)CC5)C[C@H]4/C=C\\CCCCC[C@H](NC(=O)OC4(C)CC4)C(=O)N2C1)O3 [Example 364]", "satisfied"),
]

###

Test system: HCV genotype 1b replicon
Experiment: HCV replicon assay, genotype 1b replicon EC50
Assay type: cell-based, Hepatitis C virus
Conditions: Hepatitis C virus, HCV replicon, genotype 1b; read-out: EC50 [gt-1b]
Description: Measuring Compound Inhibitory Potency (Genotype 1b Replicon EC50 (nM)) Measurement of inhibition by compounds was performed using the HCV replicon system. Several different replicons encoding different HCV genotypes or mutations were used. […] To initiate an assay, replicon cells were plated in the presence of a dilution series of test compound in the absence of G418. […] In some cases, luciferase activity was measured using a conventional luciferase assay. […]
property-measured: log10 EC50 (log10 of the value in nM)

# compound, log10 EC50
records = [
    ("Cc1nc2ccccc2c2c1O[C@]1(CC2)C[C@H]2C(=O)N[C@]3(C(=O)NS(=O)(=O)C4(C)CC4)C[C@H]3/C=C\\CCCCC[C@H](Nc3cc(C(F)(F)F)ccn3)C(=O)N2C1 [Example 414]", 0.71),
    ("COc1ccc2nc(C)c3c(c2n1)CC[C@]1(C[C@H]2C(=O)N[C@]4(C(=O)NS(=O)(=O)C5(C)CC5)C[C@H]4/C=C\\CCCCC[C@H](NC(=O)OCC(C)C)C(=O)N2C1)O3 [Example 362]", 0.61),
    ("COCC1(S(=O)(=O)NC(=O)[C@@]23C[C@H]2/C=C\\CCCCC[C@H](NC(=O)C2CCC(=O)N(C)C2)C(=O)N2C[C@@]4(CCc5c(c(C(F)(F)F)nc6ccc(OC)cc56)O4)C[C@H]2C(=O)N3)CC1 (some centres unmarked) [Example 500]", 2.64),
    ("COc1ccc2nc(C)c3c(c2c1)CC[C@]1(C[C@H]2C(=O)N[C@]4(C(=O)NS(=O)(=O)C5(C)CC5)C[C@H]4/C=C\\CCCCC[C@H](Nc4cccc(C)n4)C(=O)N2C1)O3 [Example 463]", 0.33),
    ("COc1ccc2nc(C(F)(F)F)c3c(c2c1)[C@H](F)C[C@]1(C[C@H]2C(=O)N[C@]4(C(=O)NS(=O)(=O)C5(C)CC5)C[C@H]4/C=C\\CCCCC[C@H](NC(=O)OCC(C)C)C(=O)N2C1)O3 [Example 461]", 0.52),
]
